Entry source: ChEMBL document CHEMBL1121970

Test system: V79
Experiment: Inhibitory activity against hypoxic Chinese hamster cells(V-79) in culture by colony formation assay
Assay type: functional
Conditions: Cricetulus griseus, read-out: ED50 (the source's name)
Note to self: use Y only for EC50 readings below 300 µM; a reading exactly at 300 µM still gets N.

// query In the record for COCC(O)Cn1c(C(F)(F)F)nc2ccccc21 (configuration not stated) , is EC50 less than 300 µM?
// result N

// query Now give it for COCC(O)Cn1c(C(C)=O)nc2cc([N+](=O)[O-])ccc21 (configuration not stated) too.
// result N

// query And then COCC(O)Cn1c(C(F)(F)F)nc2ccc([N+](=O)[O-])cc21 (configuration not stated) , what is it?
// result N

// query How about `CCOC(=O)Cn1c([N+](=O)[O-])nc2cc([N+](=O)[O-])ccc21` ?
// result Y

// query How about COCC(O)Cn1c([N+](=O)[O-])nc2ccccc21 (configuration not stated) ?
// result N

// query Check COCC(O)Cn1c(S(C)(=O)=O)nc2ccccc21 (configuration not stated) too.
// result N

// query Next up: `CCOC(=O)Cn1c([N+](=O)[O-])nc2ccc([N+](=O)[O-])cc21`
// result Y

// query Now the molecule COCC(O)Cn1c(C(N)=O)nc2ccccc21 (configuration not stated)
// result N

// query Next up: COCC(O)Cn1c(C(C)=O)nc2ccccc21 (configuration not stated)
// result N

// query Could you do the same for COCC(O)Cn1c(C#N)nc2ccccc21 (configuration not stated) , please?
// result N

// query What do you get for COCC(O)Cn1c(C(F)(F)F)nc2cc([N+](=O)[O-])ccc21 (configuration not stated) ?
// result N

====

So I've got a bunch of molecules here, and I need their Survivals values.
System: CHO
Test: Radiosensitizing activity against chinese hamster cells was determined in the presence of the sensitizer under nitrogen at a concentration of 1.0 mM
Type: functional, Cricetulus griseus
One number for each entry, in %.

Illustrative cases are given below, each with its answer.
CCOC(=O)Cn1c([N+](=O)[O-])nc2ccccc21 | 2.7
COCC(O)Cn1c(C(F)(F)F)nc2cc([N+](=O)[O-])ccc21 (stereo unspecified) | 13.8
CCOC(=O)Cn1c([N+](=O)[O-])nc2cc([N+](=O)[O-])ccc21 | 26.7
COCC(O)Cn1c(C(F)(F)F)nc2ccc([N+](=O)[O-])cc21 (stereo unspecified) | 17.6
COCC(O)Cn1c([N+](=O)[O-])nc2ccccc21 (stereo unspecified) | 9.4
COCC(O)Cn1c(C(C)=O)nc2cc([N+](=O)[O-])ccc21 (stereo unspecified) | 11.3

For the 5 molecules below, give their Survivals values.
1. COCC(O)Cn1c(S(C)(=O)=O)nc2ccccc21 (stereo unspecified)
2. COCC(O)Cn1c(C(N)=O)nc2ccccc21 (stereo unspecified)
3. COCC(O)Cn1c(C(F)(F)F)nc2ccccc21 (stereo unspecified)
4. COCC(O)Cn1c(C(C)=O)nc2ccccc21 (stereo unspecified)
5. COCC(O)Cn1c(C#N)nc2ccccc21 (stereo unspecified)

// result
[25.8, 21, 22, 23, 23]
